target: mouse TMEM16A mutant S517A (Mus musculus, UniProt Q8BHY3, S517A); construct: expressed in transfected cells; host or cells: HEK293T; assay: Inside-out patch recording of 1PBC block, mutant S517A; type: cell-based; conditions: S517A; V -60 mV
property: pIC50
Scale note: pIC50 = -log10(concentration in M).

-- ask I would be grateful if you could share the reported pIC50 for `N#Cc1c(C(F)(F)F)cc(O)n2c1nc1ccccc12` .
-- reply 4.99

* * *

Biological target: mouse TMEM16A mutant V543A (Mus musculus, UniProt Q8BHY3, V543A)
Construct: expressed in transfected cells; host or cells: HEK293T
Assay: Inside-out patch recording of 1PBC block, mutant V543A
Assay type: cell-based
Conditions: V543A; V 140 mV
Experimental: HEK293T cells (ATCC CRL-1573) were maintained in Dulbecco’s modified Eagle’s medium (DMEM; Sigma-Aldrich) supplemented with 10 U ml^−1 penicillin, 0.1 mg ml^−1 streptomycin (Sigma-Aldrich), 2 mM L-glutamine (Sigma-Aldrich), and 10% FBS (Sigma-Aldrich) in a humidified atmosphere containing 5% CO2 at 37 °C. […]
property: IC50 (µM)
Number only, in µM; omit the unit.

-- ask Which IC50 value belongs to `N#Cc1c(C(F)(F)F)cc(O)n2c1nc1ccccc12` ?
-- reply 9.55

* * *

Target: mouse TMEM16A mutant Y514A (Mus musculus, UniProt Q8BHY3, Y514A)
Construct: expressed in transfected cells; host or cells: HEK293T
Sequence (Q8BHY3 1-960 Y514A): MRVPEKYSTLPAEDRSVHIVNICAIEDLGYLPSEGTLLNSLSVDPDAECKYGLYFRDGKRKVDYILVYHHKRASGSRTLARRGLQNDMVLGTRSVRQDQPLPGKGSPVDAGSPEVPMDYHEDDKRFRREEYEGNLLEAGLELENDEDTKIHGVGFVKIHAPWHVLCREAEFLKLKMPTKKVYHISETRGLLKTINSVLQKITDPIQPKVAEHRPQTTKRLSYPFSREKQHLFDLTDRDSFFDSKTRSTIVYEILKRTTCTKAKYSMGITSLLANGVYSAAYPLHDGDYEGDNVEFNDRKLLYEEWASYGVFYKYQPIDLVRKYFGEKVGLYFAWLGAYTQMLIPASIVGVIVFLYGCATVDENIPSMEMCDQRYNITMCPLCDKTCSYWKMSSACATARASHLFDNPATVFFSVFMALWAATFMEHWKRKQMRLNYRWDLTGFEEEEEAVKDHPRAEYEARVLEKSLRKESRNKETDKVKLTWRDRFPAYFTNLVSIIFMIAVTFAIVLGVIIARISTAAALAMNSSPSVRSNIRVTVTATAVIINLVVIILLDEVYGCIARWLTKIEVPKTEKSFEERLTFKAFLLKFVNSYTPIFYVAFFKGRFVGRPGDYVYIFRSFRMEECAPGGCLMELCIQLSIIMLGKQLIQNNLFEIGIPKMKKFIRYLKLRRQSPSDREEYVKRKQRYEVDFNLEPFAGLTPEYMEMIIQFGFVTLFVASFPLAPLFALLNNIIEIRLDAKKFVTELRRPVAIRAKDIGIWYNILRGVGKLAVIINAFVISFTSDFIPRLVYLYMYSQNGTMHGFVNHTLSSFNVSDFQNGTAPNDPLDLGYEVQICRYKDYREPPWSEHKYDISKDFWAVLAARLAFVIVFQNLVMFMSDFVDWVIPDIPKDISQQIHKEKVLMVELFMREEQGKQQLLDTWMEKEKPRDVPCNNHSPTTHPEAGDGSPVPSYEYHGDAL
Assay: Inside-out patch recording of 1PBC block, mutant Y514A
Format: cell-based
Settings: Y514A; V 120 mV
property: pIC50
Scale explanation: pIC50 corresponds to minus log10 of a concentration expressed in moles per litre.

-- ask Suppose we examine the compound `N#Cc1c(C(F)(F)F)cc(O)n2c1nc1ccccc12` ; what pIC50 value has been reported?
-- reply 4.95

* * *

Target: mouse TMEM16A mutant I640A (Mus musculus, UniProt Q8BHY3, I640A)
Construct: expressed in transfected cells; host or cells: HEK293T
Sequence (Q8BHY3 1-960 I640A): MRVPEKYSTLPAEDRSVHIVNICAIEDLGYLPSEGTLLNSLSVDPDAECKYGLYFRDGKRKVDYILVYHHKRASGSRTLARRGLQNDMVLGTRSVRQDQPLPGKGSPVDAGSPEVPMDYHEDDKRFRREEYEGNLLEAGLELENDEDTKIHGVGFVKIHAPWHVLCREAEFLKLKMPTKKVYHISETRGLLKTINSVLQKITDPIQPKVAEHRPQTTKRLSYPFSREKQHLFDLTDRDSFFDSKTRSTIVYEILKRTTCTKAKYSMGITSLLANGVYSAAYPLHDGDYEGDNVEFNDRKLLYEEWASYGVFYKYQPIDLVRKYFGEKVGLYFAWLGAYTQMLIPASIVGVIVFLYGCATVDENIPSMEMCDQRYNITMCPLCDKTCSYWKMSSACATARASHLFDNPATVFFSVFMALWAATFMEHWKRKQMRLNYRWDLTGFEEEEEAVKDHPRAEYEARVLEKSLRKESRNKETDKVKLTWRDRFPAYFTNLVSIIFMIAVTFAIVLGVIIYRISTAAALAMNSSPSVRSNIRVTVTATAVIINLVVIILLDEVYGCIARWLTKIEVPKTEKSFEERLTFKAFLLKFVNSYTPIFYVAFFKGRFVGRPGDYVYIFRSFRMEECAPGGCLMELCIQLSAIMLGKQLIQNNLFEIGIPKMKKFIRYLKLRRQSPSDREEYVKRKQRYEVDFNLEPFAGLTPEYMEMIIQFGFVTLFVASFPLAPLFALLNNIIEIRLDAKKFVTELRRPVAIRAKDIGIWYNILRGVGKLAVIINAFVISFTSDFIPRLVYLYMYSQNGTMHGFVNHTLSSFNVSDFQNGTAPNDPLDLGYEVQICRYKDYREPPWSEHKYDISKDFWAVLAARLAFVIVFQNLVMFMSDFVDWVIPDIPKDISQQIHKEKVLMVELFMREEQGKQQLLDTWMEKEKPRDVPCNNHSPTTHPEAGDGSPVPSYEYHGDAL
Assay: Inside-out patch recording of 1PBC block, mutant I640A
Format: cell-based
Conditions: 120 mV; 15 µM Ca2+
property: IC50 (µM)
Answer format: numeric, µM implied, no suffix.

-- ask Lookup: IC50 / mouse TMEM16A mutant I640A (Mus musculus, UniProt Q8BHY3, I640A) / `N#Cc1c(C(F)(F)F)cc(O)n2c1nc1ccccc12`
-- reply 24.9

* * *

target: mouse TMEM16A mutant G558P (Mus musculus, UniProt Q8BHY3, G558P); construct: expressed in transfected cells; host or cells: HEK293T; experiment: Inside-out patch recording of 1PBC block, mutant G558P; type: cell-based; details: G558P; V -40 mV
property: IC50 (µM)
Provide the reading as a plain figure in µM.

-- ask // query IC50 value for entry `N#Cc1c(C(F)(F)F)cc(O)n2c1nc1ccccc12`
-- reply 10.4

* * *

Target: mouse TMEM16A mutant R535A (Mus musculus, UniProt Q8BHY3, R535A)
Construct: expressed in transfected cells; host or cells: HEK293T
Sequence (Q8BHY3 1-960 R535A): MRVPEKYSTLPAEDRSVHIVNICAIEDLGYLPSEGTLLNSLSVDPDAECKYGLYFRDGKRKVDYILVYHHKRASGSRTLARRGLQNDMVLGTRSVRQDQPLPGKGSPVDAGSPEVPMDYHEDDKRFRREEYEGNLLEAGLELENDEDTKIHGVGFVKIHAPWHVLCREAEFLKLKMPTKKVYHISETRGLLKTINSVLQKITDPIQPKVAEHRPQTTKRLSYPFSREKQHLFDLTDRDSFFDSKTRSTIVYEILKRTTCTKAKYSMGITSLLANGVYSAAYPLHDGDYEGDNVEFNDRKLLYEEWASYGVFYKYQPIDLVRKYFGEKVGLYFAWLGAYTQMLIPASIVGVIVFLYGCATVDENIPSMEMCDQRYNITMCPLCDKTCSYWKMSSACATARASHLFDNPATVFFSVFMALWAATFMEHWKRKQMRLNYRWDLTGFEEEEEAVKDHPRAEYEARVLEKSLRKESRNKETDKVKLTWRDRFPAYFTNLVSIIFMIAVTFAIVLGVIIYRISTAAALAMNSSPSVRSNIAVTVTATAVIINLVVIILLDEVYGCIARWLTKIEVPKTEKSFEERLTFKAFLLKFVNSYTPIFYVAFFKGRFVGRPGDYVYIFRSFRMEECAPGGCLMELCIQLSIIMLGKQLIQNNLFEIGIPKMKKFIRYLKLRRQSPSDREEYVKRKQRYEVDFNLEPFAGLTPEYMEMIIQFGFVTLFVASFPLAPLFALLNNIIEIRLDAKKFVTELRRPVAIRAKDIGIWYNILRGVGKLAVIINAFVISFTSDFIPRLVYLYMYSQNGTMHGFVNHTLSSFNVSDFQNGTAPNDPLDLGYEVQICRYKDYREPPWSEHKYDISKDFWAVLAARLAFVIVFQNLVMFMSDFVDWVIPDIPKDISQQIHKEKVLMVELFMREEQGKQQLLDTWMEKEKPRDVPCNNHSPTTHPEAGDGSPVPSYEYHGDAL
Test: Inside-out patch recording of 1PBC block, mutant R535A
Assay type: cell-based
Conditions: -100 mV; 2 µM Ca2+
property: pIC50
Lab note — pIC50 values are minus log10 of concentrations in M.

-- ask Returns the measured pIC50 for the input molecule. Input: `N#Cc1c(C(F)(F)F)cc(O)n2c1nc1ccccc12`
-- reply 4.52
